- assay: Test compounds' PK assay in ICR mice
- Assay type: in vivo
- experimental setup: mouse, plasma; ICR mice, po, 5 mg/kg, AUC in 0 hour to infinite time
AUC(0-inf) values for the molecules below.
Supply the numeric figure in µg·h/mL, leaving out any unit text.

- CCOC(=O)C1=C(CN2CC(F)(F)C[C@H]2C(C)CC(=O)O)NC(c2nccs2)=N[C@H]1c1ccc(F)cc1Br (stereo partly shown): 4.87
- CCOC(=O)C1=C(CN2CC(F)C(C)(C)C2CCC(=O)O)NC(c2nccs2)=N[C@H]1c1ccc(F)cc1Br (stereo partly shown): 12.5
- CCOC(=O)C1=C(CN2CC(F)(F)C[C@H]2CC(C)C(=O)O)NC(c2nccs2)=N[C@H]1c1ccc(F)cc1Br (stereo partly shown): 4.97

Ask: Entry "CCOC(=O)C1=C(CN2CC(F)(F)C[C@H]2CCC(=O)O)NC(c2nccs2)=N[C@H]1c1ccc(F)cc1Br" needs its AUC(0-inf) filled in; supply it.
Result: 4.85

---

- assay: Test compounds' PK assay in ICR mice
- Format: in vivo
- experimental setup: mouse, plasma; ICR mice, iv, 2 mg/kg
half-life values for the compounds below.
Supply the numeric figure in h, leaving out any unit text.

• CCOC(=O)C1=C(CN2CC(F)C(C)(C)C2CCC(=O)O)NC(c2nccs2)=N[C@H]1c1ccc(F)cc1Br (stereo partly shown) = 3.22
• CCOC(=O)C1=C(CN2CC(F)(F)C[C@H]2CC(C)C(=O)O)NC(c2nccs2)=N[C@H]1c1ccc(F)cc1Br (stereo partly shown) = 1.35
• CCOC(=O)C1=C(CN2CC(F)(F)C[C@H]2C(C)CC(=O)O)NC(c2nccs2)=N[C@H]1c1ccc(F)cc1Br (stereo partly shown) = 1.37

Then this compound:
Ask: Entry "CCOC(=O)C1=C(CN2CC(F)(F)C[C@H]2CCC(=O)O)NC(c2nccs2)=N[C@H]1c1ccc(F)cc1Br" needs its half-life filled in; supply it.
Result: 0.77

---

Cmax values for the compounds below.
- assay: Test compounds' PK assay in ICR mice
- Assay type: in vivo
- experimental setup: mouse, plasma; ICR mice, po, 5 mg/kg; read-out: Cmax
- Experimental: The test compounds were poured into ICR mice stomach through mouth with 10 mg/kg or 5 mg/kg, or administered 2 mg/kg to ICR mice by tail-intravenous injection. Blood sample of orbital vein was taken at 0.083, 0.25, 0.5, 1, 2, 4, 6, 8 and 24 hours after administration, and collected in anticoagulation tube added with EDTA-K2. […] Quantitation was performed using multiple reaction monitoring (MRM). Pharmacokinetic parameters were calculated using WinNonlin 6.3 software with non compartment model.
Supply the numeric figure in ng/mL, leaving out any unit text.

- CCOC(=O)C1=C(CN2CC(F)C(C)(C)C2CCC(=O)O)NC(c2nccs2)=N[C@H]1c1ccc(F)cc1Br (stereo partly shown): 4900

Ask: Entry CCOC(=O)C1=C(CN2CC(F)(F)C[C@H]2CC(C)C(=O)O)NC(c2nccs2)=N[C@H]1c1ccc(F)cc1Br (stereo partly shown) needs its Cmax filled in; supply it.
Result: 4820

Ask: Entry "CCOC(=O)C1=C(CN2CC(F)(F)C[C@H]2CCC(=O)O)NC(c2nccs2)=N[C@H]1c1ccc(F)cc1Br" needs its Cmax filled in; supply it.
Result: 5410

Ask: Entry CCOC(=O)C1=C(CN2CC(F)(F)C[C@H]2C(C)CC(=O)O)NC(c2nccs2)=N[C@H]1c1ccc(F)cc1Br (stereo partly shown) needs its Cmax filled in; supply it.
Result: 5460

Data origin, for the record: patent US9498479B2
